- target_or_system: T1, B-cat-Halo (beta-catenin HaloTag NanoBRET construct expressed in HEK293 cells) (UniProt P35222 1-781)
- T1 sequence (looked up): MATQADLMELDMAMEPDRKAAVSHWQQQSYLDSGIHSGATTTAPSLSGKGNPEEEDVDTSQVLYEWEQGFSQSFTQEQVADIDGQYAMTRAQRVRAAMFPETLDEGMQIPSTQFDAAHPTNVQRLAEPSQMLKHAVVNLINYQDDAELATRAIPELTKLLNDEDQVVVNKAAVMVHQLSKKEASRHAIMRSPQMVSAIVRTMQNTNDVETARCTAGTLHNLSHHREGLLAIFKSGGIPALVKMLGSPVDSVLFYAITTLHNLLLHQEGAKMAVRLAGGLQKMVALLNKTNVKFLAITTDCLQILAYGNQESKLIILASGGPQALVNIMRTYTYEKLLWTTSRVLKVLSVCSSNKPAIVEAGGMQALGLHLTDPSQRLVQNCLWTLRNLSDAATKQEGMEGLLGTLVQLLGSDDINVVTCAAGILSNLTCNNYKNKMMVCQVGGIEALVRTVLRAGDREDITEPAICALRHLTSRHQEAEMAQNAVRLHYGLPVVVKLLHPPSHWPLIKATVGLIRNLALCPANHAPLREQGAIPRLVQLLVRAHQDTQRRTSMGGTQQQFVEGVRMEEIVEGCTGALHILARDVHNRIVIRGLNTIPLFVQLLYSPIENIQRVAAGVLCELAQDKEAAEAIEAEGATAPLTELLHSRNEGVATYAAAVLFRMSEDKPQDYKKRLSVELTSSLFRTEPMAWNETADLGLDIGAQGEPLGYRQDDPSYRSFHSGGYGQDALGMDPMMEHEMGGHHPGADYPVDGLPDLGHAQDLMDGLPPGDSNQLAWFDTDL
- test_description: cell-based or functional assay
Starred links: 1 amine or outer side, 2 acyl side, 3 side chain; linkers in the order of their positions; H or OH if unused. Positions of bridges follow the written chain, without caps; N, C: chain ends. Non-standard residues stand in square brackets, D forms with d. Primed or numbered codes have the meaning given here. B5(17) = 2,2-bis(4-pentenyl)glycine = 2-amino-2-(pent-4-en-1-yl)hept-6-enoic acid, stitching residue, C=CCCCC(CCCC=C)(N[*:1])C(=O)[*:2]; B5(4) = 2,2-bis(4-pentenyl)glycine = 2-amino-2-(pent-4-en-1-yl)hept-6-enoic acid (stitching residue), C=CCCCC(CCCC=C)(N[*:1])C(=O)[*:2]; Bta = N[C@@H](Cc1csc2ccccc12)C(=O)O; αAllylPro = C=CC[C@@]1(C(=O)O)CCCN1; tBuAla = CC(C)(C)C[C@H](N)C(=O)O; S8 = C=CCCCCCC[C@](C)(N)C(=O)O; hLeu = CC(C)CC[C@H](N)C(=O)O
measurement_kind: NanoBRET Abs IC50 (µM)
Write the answer as a number in µM, unit excluded.

binder	value_unit	NanoBRET Abs IC50
XDIXDDAAFNXFXQ (not fully specified; N-terminal Ac; PL3 at 1; B5 at 4; S8 at 11; 2OMeF at 12; BztA at 13; C-terminal NH2; staples PL3(1)-B5(4) and B5(4)-S8(11) by olefin metathesis) [I-550]	µM	21.4
Ac-[αAllylPro]D[hLeu][B5(4)]DDAAFN[S8]F[Bta]Q-NH2 (staple 1-4, 4-11; not fully specified) [I-548]	µM	15.6
Ac-[αAllylPro]D[tBuAla][B5(4)]DEAAFQ[S8]F[Bta]Q-NH2 (staple 1-4, 4-11) [I-544]	µM	4.6

Query :: Complete the entry with NanoBRET Abs IC50 for Ac-[αAllylPro]DL[B5(4)]DEAAFN[S8]F[Bta]H-NH2 (staple 1-4, 4-11) [I-543]
Result :: 17

Query :: Please report NanoBRET Abs IC50 for the following binder: Ac-[αAllylPro]D[tBuAla][B5(4)]DDAAFN[S8]F[Bta]Q-NH2 (staple 1-4, 4-11) [I-546]
Result :: 12.1

Query :: Return NanoBRET Abs IC50 (reported value) for this binder: Ac-[αAllylPro]D[hLeu][B5(4)]DEAAFQ[S8]F[Bta]Q-NH2 (staple 1-4, 4-11) [I-545]
Result :: 3.5

Query :: Return the recorded NanoBRET Abs IC50 value; entry: Ac-[αAllylPro]DI[B5(17)]DEAAFN[S8]F[Bta]Q-NH2 (staple 1-4, 4-11) [I-557]
Result :: 16.9
